Test: Surface tension of grafted siloxane derivatives
Format: physicochemical
quantity measured: Surface Tension (20° C.)
Don't forget the unit after the value.

compound string | Surface Tension (20° C.)
C[Si](C)(C)O[Si](C)(CCCCCCCCCC(=O)OCCC(F)(F)C(F)(F)C(F)(F)C(F)(F)F)O[Si](C)(C)C | 20.8 mN/m
COC(=O)CCCCCCCCC[Si](C)(O[Si](C)(C)C)O[Si](C)(C)C | 22.6 mN/m

Query compound follows.
Ask: For the compound shown here, COCCOCCOCCOC(=O)CCCCCCCCC[Si](C)(O[Si](C)(C)C)O[Si](C)(C)C , give the reported Surface Tension (20° C.).
Reply: 21.4 mN/m
